# TEST: chemical genetic growth profiling, strain panel (AID 1159580);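 also: tested at 20 µM; growth read once vehicle control cultures reached saturation at 30 °C; 1 = growth at the plate median or of vehicle wells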
# REPORTED_CONDITIONS: S. cerevisiae deletion strains, growth OD, locus YBR229C, strain ROT2
Among all 5,500 compounds or so, about 2,000 (36%) were called active. Roughly 18% stayed inconclusive and do not appear here. Rule as the data show it: active = normalized growth mostly below about 0.91 (no sharp cut-off); inconclusive = no clear call, values can overlap the other calls; inactive = mostly above about 0.92. The list shows a part of the results.
Reply using exactly one outcome from T for active, F for inactive

Sample answers from the record:
LINE_NOTATION	LABEL_CLASS
COc1ccccc1-c1coc2cc(O)ccc2c1=O	F
O=c1c(-c2ccc(O)cc2)coc2cc(O)ccc12	F
CC[C@@]1(O)C[C@H](O[C@H]2C[C@H](N(C)C)[C@H](O)[C@H](C)O2)c2c(cc3c(c2O)C(=O)c2c(O)ccc(O)c2C3=O)[C@H]1C(=O)OC	T
COc1ccc(-c2coc3cc(OC)ccc3c2=O)cc1	T

Field: next compound
What is the recorded call for this compound in the test? COc1ccc(-c2coc3cc(O)ccc3c2=O)cc1
F

###

Measured normalized growth values are reported for all entries that follow.
# TEST: chemical genetic growth profiling, strain panel (AID 1159580);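 also: tested at 20 µM; growth read once vehicle control cultures reached saturation at 30 °C; 1 = growth at the plate median or of vehicle wells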
# REPORTED_CONDITIONS: S. cerevisiae deletion strains, growth OD, locus YDR388W, stronger effect = lower value
Out of some 5,500 compounds screened, about 2,000 (36%) were called active. About 18% were inconclusive and are not listed. The list shows a part of the results.
Field format: numeric only.

COMPOUND	normalized growth
CN1C2CCC1CC(OC(c1ccccc1)c1ccccc1)C2 (configuration not stated)	0.972
NC(=O)c1ccc[n+]([C@@H]2O[C@H](COP(=O)([O-])OP(=O)(O)OC[C@H]3O[C@@H](n4cnc5c(N)ncnc54)[C@H](OP(=O)(O)O)[C@@H]3O)[C@@H](O)[C@H]2O)c1	0.985
CCCCCCCCC(=O)NCc1ccc(O)c(OC)c1	0.981
COc1ccc(OC)c(C(O)CNC(=O)CN)c1 (configuration not stated)	0.983

Need normalized growth, item CC1COc2c(N3CCN(C)CC3)c(F)cc3c(=O)c(C(=O)O)cn1c23 (configuration not stated)
1.01

Query (compound): O=c1cccc2ccc(O)c(O)c2c1O ; field requested: normalized growth
0.718

Please look up its normalized growth: CN1C2CCC1CC(OC(c1ccccc1)c1ccccc1N)C2 (configuration not stated)
1.01

###

# TEST: chemical genetic growth profiling, strain panel (AID 1159580);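 also: tested at 20 µM; growth read once vehicle control cultures reached saturation at 30 °C; 1 = growth at the plate median or of vehicle wells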
# REPORTED_CONDITIONS: S. cerevisiae deletion strains, growth OD, locus YLR133W, strain CKI1
In all, about 5,500 compounds went through this assay and about 2,000 (36%) were called active. About 18% were inconclusive and are not listed. Rule as the data show it: active = normalized growth mostly below about 0.91 (no sharp cut-off); inconclusive = no clear call, values can overlap the other calls; inactive = mostly above about 0.92. Some of the results follow.
Form entry, call: pick from t = active, f = inactive

LINE_NOTATION	LABEL_CLASS
CC1(C)CC(=O)C=C(Sc2nc3ccccc3o2)C1	f

Given O=C(c1csc(-c2ccc(Cl)cc2)c1)N1CCCCC1 , state the outcome it received in this test.
f

# lookup: test call for COc1cc(Cl)ccc1N/N=C(/C#N)C(N)=O
t

Recorded call for CC(=O)/C(C#N)=N\Nc1ccc(F)cc1 ?
t

Identify the outcome logged in this assay for the molecule shown: COc1cccc(C2CCN(C(=O)c3cccc4ccccc34)CC2)c1
f

###

# TEST: chemical genetic growth profiling, strain panel (AID 1159580);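 also: tested at 20 µM; growth read once vehicle control cultures reached saturation at 30 °C; 1 = growth at the plate median or of vehicle wells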
# REPORTED_CONDITIONS: S. cerevisiae deletion strains, growth OD, locus YJL166W, strain qcr8
About 2,000 (36%) of roughly 5,500 compounds were called active. Roughly 18% stayed inconclusive and do not appear here. No stated cut-off is given here; in the data, active means normalized growth mostly below about 0.91 (no sharp cut-off); inconclusive means no clear call, values can overlap the other calls; inactive means mostly above about 0.92. This is one part of the list.
// allowed return values: 1 (yes) for active, 0 (no) for inactive

COMPOUND	LABEL_CLASS
CC[C@@H](C(=O)C(C)[C@@H](O)[C@H](C)CCc1ccc(C)c(O)c1C(=O)O)C1OC(CC)(C2CC[C@](O)(CC)[C@H](C)O2)C[C@@H]1C (some centres undefined)	0 (no)
NCCCS(=O)(=O)O	0 (no)
CN(C)CCN(Cc1cccs1)c1ccccn1	0 (no)
C=C1CCC2[C@](C)(CO)[C@H](O)CC[C@@]2(C)[C@@H]1C/C=C1/C(=O)OC[C@H]1O (some centres undefined)	0 (no)
COC(=O)C1=COC(OC2OC(CO)C(O)C(O)C2O)C2C(C)CC(=O)C12 (centres undefined)	0 (no)
C=C[C@@](C)(O)CCC1C(=C)CCC2[C@@](C)(CO)CCC[C@]12C (some centres undefined)	0 (no)
Oc1cc(O)c2c(c1)O[C@H](c1ccc(O)c(O)c1)[C@H](O)C2	0 (no)
Cn1c(=O)c2c(ncn2CC(O)CO)n(C)c1=O (centres undefined)	0 (no)
COc1ccc(C(CN(C)C)C2(O)CCCCC2)cc1 (centres undefined)	0 (no)
CC1(O)CC2C(CC1O)C2(C)C (centres undefined)	0 (no)

Recorded test outcome, item C=CC[C@]1(O)CCC2C3CCC4=CC(=O)CCC4=C3C=C[C@@]21C (some centres undefined)
0 (no)

# outcome recorded in this test, key = CC(C)NCC(O)COc1cccc2[nH]ccc12 (centres undefined)
0 (no)

Identify the outcome logged in this assay for the compound shown: CN(C)CCCC1(c2ccc(F)cc2)OCc2cc(C#N)ccc21 (centres undefined)
0 (no)

Identify the outcome logged in this assay for the compound shown: CC[C@]1(O)CC2CN(CCc3c([nH]c4ccccc34)[C@@](C(=O)OC)(c3cc4c(cc3OC)N(C)[C@H]3[C@@](O)(C(=O)OC)[C@H](OC(C)=O)[C@]5(CC)C=CCN6CC[C@]43[C@@H]65)C2)C1 (some centres undefined)
0 (no)

Hi, do you know how COc1ccc(CN(CCN(C)C)c2ccccn2)cc1 came out in this test?
0 (no)

The values you see were collected from PubChem BioAssay AID1159580.
